Tested on: Rattus norvegicus
assayDetails: Antiinflammatory activity in Wistar rat model of carrageenan-induced paw edema assessed as reduction in thickness of paw edema at 10 mg/kg, ip pretreated for 1 hr followed by carrageenan challenge and measured after 4 hrs (reference value: 1.40 +/-0.10 mm)
Type: functional
conditionsUsed: time 5 hrs
// label = 1.0 if Activity is not less than 0.8 mm, otherwise 0.0

Example entries begin here.
compound: COc1cc(/C=C/C(=O)/C=C(O)/C=C/c2ccc(OC(=O)[C@H](C)NC(=O)OC(C)(C)C)c(OC)c2)ccc1OC(=O)[C@H](C)NC(=O)OC(C)(C)C
assignedClass: 1.0

compound: COc1cc(/C=C/C(=O)/C=C(O)/C=C/c2ccc(OC(=O)[C@@H](CCSC)NC(=O)OCc3ccccc3)c(OC)c2)ccc1OC(=O)[C@@H](CCSC)NC(=O)OCc1ccccc1
assignedClass: 0.0

compound: COc1cc(/C=C/C(=O)/C=C(O)/C=C/c2ccc(OC(=O)CN)c(OC)c2)ccc1OC(=O)CN.Cl.Cl
assignedClass: 0.0

compound: COc1cc(/C=C/C(=O)/C=C(O)/C=C/c2ccc(OC(=O)[C@H](Cc3c[nH]c4ccccc34)NC(=O)OCc3ccccc3)c(OC)c2)ccc1OC(=O)[C@H](Cc1c[nH]c2ccccc12)NC(=O)OCc1ccccc1
assignedClass: 1.0

compound: COc1cc(/C=C/C(=O)/C=C(O)/C=C/c2ccc(OC(=O)[C@H](N)CCSC)c(OC)c2)ccc1OC(=O)[C@H](N)CCSC.Cl.Cl
assignedClass: 0.0

Now for another entry.
[in] In plain terms: is recorded Activity at least 0.8 mm for COc1cc(/C=C/C(=O)/C=C(O)/C=C/c2ccc(OC(=O)C(C)NC(=O)OCc3ccccc3)c(OC)c2)ccc1OC(=O)C(C)NC(=O)OCc1ccccc1 (configuration not stated) ?
[out] 0.0

###

System: Splenocyte
assayDetails: Immunomodulatory activity in Swiss albino mouse splenocytes assessed as cell viability at 10 uM by measuring inhibition of stimulation index incubated for 72 hrs in presence of mitogenic stimulus phytohaemagglutinin by MTT assay relative to indomethacin
Format: functional
conditionsUsed: read-out: Activity
measurementName: viability at 10 µM (%)
Numbers only, in %.

compound: COc1cc(/C=C/C(=O)/C=C(O)/C=C/c2ccc(OC(=O)[C@H](Cc3ccccc3)NC(=O)OCC3c4ccccc4-c4ccccc43)c(OC)c2)ccc1OC(=O)[C@H](Cc1ccccc1)NC(=O)OCC1c2ccccc2-c2ccccc21
unitTag: %
testResult: 68.1

List the reported viability at 10 µM of each compound below.
1. COc1cc(/C=C/C(=O)/C=C(O)/C=C/c2ccc(OC(=O)CN)c(OC)c2)ccc1OC(=O)CN.Cl.Cl
2. COc1cc(/C=C/C(=O)/C=C(O)/C=C/c2ccc(OC(=O)[C@H](CC(C)C)NC(=O)OCc3ccccc3)c(OC)c2)ccc1OC(=O)[C@H](CC(C)C)NC(=O)OCc1ccccc1
3. CC[C@H](C)[C@H](NC(=O)OC(C)(C)C)C(=O)Oc1ccc(/C=C/C(=O)/C=C(O)/C=C/c2ccc(OC(=O)[C@@H](NC(=O)OC(C)(C)C)[C@@H](C)CC)c(OC)c2)cc1OC
4. COc1cc(/C=C/C(=O)/C=C(O)/C=C/c2ccc(OC(=O)CCN)c(OC)c2)ccc1OC(=O)CCN.Cl.Cl

[out]
122
42.8
58.3
87.4

List the reported viability at 10 µM of each compound below.
1. COc1cc(/C=C/C(=O)/C=C(O)/C=C/c2ccc(OC(=O)C(C)NC(=O)OC(C)(C)C)c(OC)c2)ccc1OC(=O)C(C)NC(=O)OC(C)(C)C (stereo not drawn)
2. COc1cc(/C=C/C(=O)/C=C(O)/C=C/c2ccc(OC(=O)[C@H](C)NC(=O)OCc3ccccc3)c(OC)c2)ccc1OC(=O)[C@H](C)NC(=O)OCc1ccccc1
3. COc1cc(/C=C/C(=O)/C=C(O)/C=C/c2ccc(OC(=O)[C@H](Cc3c[nH]c4ccccc34)NC(=O)OCc3ccccc3)c(OC)c2)ccc1OC(=O)[C@H](Cc1c[nH]c2ccccc12)NC(=O)OCc1ccccc1
4. COc1cc(/C=C/C(=O)/C=C(O)/C=C/c2ccc(OC(=O)[C@H](CCC(N)=O)NC(=O)OCc3ccccc3)c(OC)c2)ccc1OC(=O)[C@H](CCC(N)=O)NC(=O)OCc1ccccc1

[out]
1. 67.9
2. 44.9
3. 46.5
4. 51.1

List the reported viability at 10 µM of each compound below.
1. COc1cc(/C=C/C(=O)/C=C(O)/C=C/c2ccc(OC(=O)CCNC(=O)OC(C)(C)C)c(OC)c2)ccc1OC(=O)CCNC(=O)OC(C)(C)C
2. COc1cc(/C=C/C(=O)/C=C(O)/C=C/c2ccc(OC(=O)[C@H](N)CCSC)c(OC)c2)ccc1OC(=O)[C@H](N)CCSC.Cl.Cl
3. COc1cc(/C=C/C(=O)/C=C(O)/C=C/c2ccc(OC(=O)[C@H](CCC(N)=O)NC(=O)OC(C)(C)C)c(OC)c2)ccc1OC(=O)[C@H](CCC(N)=O)NC(=O)OC(C)(C)C
4. COc1cc(/C=C/C(=O)CC(=O)/C=C/c2ccc(O)c(OC)c2)ccc1O [CURCUMIN]

[out]
[71.1, 120, 56.6, 79.5]
